- Tested on: Cabbage Looper (Trichoplusia ni, TRIPNI)
- experiment-description: Bioassay on Cabbage Looper (CL), 128-well diet tray assay
- Format: in vivo
- conditions-used: 168 h, 50 μg/cm^2 of test molecule on artificial diet, second instar larvae, 25° C., five to seven days, average of eight wells, read-out: CL % Control (or Mortality) rating

{"compound": "Cc1ccc(C(C)C)c(N2C(=O)CS/C2=N\\C(=O)NCOc2ccc(-c3ncn(-c4ccc(OC(F)(F)F)cc4)n3)cc2)c1 [Compound F1]", "system": "Cabbage Looper (Trichoplusia ni, TRIPNI)", "mortality at 50 µg/cm2": "50 to 100%"}
{"compound": "Cc1ccc(F)c(N2C(=O)CS/C2=N\\C(=O)NCOc2ccc(-c3ncn(-c4ccc(OC(F)(F)F)cc4)n3)cc2)c1 [Compound F29]", "system": "Cabbage Looper (Trichoplusia ni, TRIPNI)", "mortality at 50 µg/cm2": "50 to 100%"}
{"compound": "COc1ccc(N2C(=O)CS/C2=N\\C(=O)NCOc2ccc(-c3ncn(-c4ccc(OC(F)(F)F)cc4)n3)cc2)c(C)c1 [Compound F32]", "system": "Cabbage Looper (Trichoplusia ni, TRIPNI)", "mortality at 50 µg/cm2": "50 to 100%"}

====

mortality at 50 µg/cm2 values for the compounds below.
- Test system: Cabbage Looper (Trichoplusia ni, TRIPNI)
- experiment-description: Bioassay on Cabbage Looper (CL), 128-well diet tray assay
- Format: in vivo
- conditions-used: 168 h, 50 μg/cm^2 of test molecule on artificial diet, second instar larvae, 25° C., five to seven days, average of eight wells, read-out: CL % Control (or Mortality) rating

{"compound": "CCCCc1ccccc1N1C(=O)CS/C1=N\\C(=O)NCOc1ccc(-c2ncn(-c3ccc(OC(F)(F)F)cc3)n2)cc1 [Compound F28]", "system": "Cabbage Looper (Trichoplusia ni, TRIPNI)", "mortality at 50 µg/cm2": "0 to 50%"}
{"compound": "Cc1ccc(OCC(F)(F)F)c(N2C(=O)CS/C2=N\\C(=O)NCOc2ccc(-c3ncn(-c4ccc(OC(F)(F)F)cc4)n3)cc2)c1 [Compound F23]", "system": "Cabbage Looper (Trichoplusia ni, TRIPNI)", "mortality at 50 µg/cm2": "50 to 100%"}
{"compound": "CCc1cccc(C)c1N1C(=O)CS/C1=N\\C(=O)NCOc1ccc(-c2ncn(-c3ccc(OC(F)(F)F)cc3)n2)cc1 [Compound F30]", "system": "Cabbage Looper (Trichoplusia ni, TRIPNI)", "mortality at 50 µg/cm2": "50 to 100%"}

====

mortality at 50 µg/cm2 values for the molecules below.
- Tested on: Beet Armyworm (Spodoptera exigua, LAPHEG)
- experiment-description: Bioassay on Beet Armyworm (BAW), 128-well diet tray assay
- Assay type: in vivo
- conditions-used: 168 h, 50 μg/cm^2 of test molecule on artificial diet, second instar larvae, 25° C., five to seven days, average of eight wells, read-out: BAW % Control (or Mortality) rating
assay-endpoint: mortality at 50 µg/cm2

{"smiles-record": "Cc1ccc(OCC(F)(F)F)c(N2C(=O)CS/C2=N\\C(=O)NCOc2ccc(-c3ncn(-c4ccc(OC(F)(F)F)cc4)n3)cc2)c1", "assay-endpoint": "mortality at 50 µg/cm2", "experimental-result": "50 to 100%"}
{"smiles-record": "CCc1cccc(C)c1N1C(=O)CS/C1=N\\C(=O)NCOc1ccc(-c2ncn(-c3ccc(OC(F)(F)F)cc3)n2)cc1", "assay-endpoint": "mortality at 50 µg/cm2", "experimental-result": "50 to 100%"}
{"smiles-record": "CCOc1ccccc1N1C(=O)CS/C1=N\\C(=O)NCOc1ccc(-c2ncn(-c3ccc(OC(F)(F)F)cc3)n2)cc1", "assay-endpoint": "mortality at 50 µg/cm2", "experimental-result": "50 to 100%"}
{"smiles-record": "COC(=O)c1ccc(N2C(=O)CS/C2=N\\C(=O)NCOc2ccc(-c3ncn(-c4ccc(OC(F)(F)F)cc4)n3)cc2)c(C)c1", "assay-endpoint": "mortality at 50 µg/cm2", "experimental-result": "0%"}
{"smiles-record": "COc1ccc(N2C(=O)CS/C2=N\\C(=O)NCOc2ccc(-c3ncn(-c4ccc(OC(F)(F)F)cc4)n3)cc2)c(C)c1", "assay-endpoint": "mortality at 50 µg/cm2", "experimental-result": "50 to 100%"}
{"smiles-record": "CCCCc1ccccc1N1C(=O)CS/C1=N\\C(=O)NCOc1ccc(-c2ncn(-c3ccc(OC(F)(F)F)cc3)n2)cc1", "assay-endpoint": "mortality at 50 µg/cm2", "experimental-result": "0%"}

Sourced from patent US11399540B2
